Tested on: 876862-298-R-J1-PDC complex spheroids, viability % test/control;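 note: spheroids exposed to drugs for 7 days before readout; 100% = DMSO vehicle control wells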
PROTOCOL SUMMARY: Anticancer human tumor 876862-298-R-J1-PDC patient-derived endometrial carcinoma cell line growth inhibition [CLK]
SETUP CONDITIONS: second compound 0.0316 µM; first compound 0.003 µM; hits give low values
READOUT KIND: viability, T/C (%)
Please respond with the number in % and leave the unit unwritten.

Some solved entries appear below for comparison.
C=CC(=O)Nc1cc(Nc2nccc(-c3cn(C)c4ccccc34)n2)c(OC)cc1N(C)CCN(C)C + CN1CCN(c2cc(C(=O)Nc3cc4cc(-c5cnn(C)c5)ccc4cn3)ccn2)CC1 = 92.8
C=CC(=O)Nc1cc(Nc2nccc(-c3cn(C)c4ccccc34)n2)c(OC)cc1N(C)CCN(C)C + CNC(=O)c1ccc(Nc2nc(OC3CCCC3)c3c(-c4ccc5nc(C)oc5c4)c[nH]c3n2)c(OC)c1 = 79.6
CC(C)CC(NC(=O)C(Cc1ccccc1)NC(=O)c1cnccn1)B(O)O (centres undefined) + CN1CCN(c2cc(C(=O)Nc3cc4cc(-c5cnn(C)c5)ccc4cn3)ccn2)CC1 = 13.8

Give the reported value of viability, T/C for this record: CC(C)CC(NC(=O)C(Cc1ccccc1)NC(=O)c1cnccn1)B(O)O (centres undefined) + CNC(=O)c1ccc(Nc2nc(OC3CCCC3)c3c(-c4ccc5nc(C)oc5c4)c[nH]c3n2)c(OC)c1
10.6
